Biological target: CFTR (Homo sapiens)
Construct: results in the phosphorylation and opening of CFTR anion channels
Sequence (P13569 whole entry): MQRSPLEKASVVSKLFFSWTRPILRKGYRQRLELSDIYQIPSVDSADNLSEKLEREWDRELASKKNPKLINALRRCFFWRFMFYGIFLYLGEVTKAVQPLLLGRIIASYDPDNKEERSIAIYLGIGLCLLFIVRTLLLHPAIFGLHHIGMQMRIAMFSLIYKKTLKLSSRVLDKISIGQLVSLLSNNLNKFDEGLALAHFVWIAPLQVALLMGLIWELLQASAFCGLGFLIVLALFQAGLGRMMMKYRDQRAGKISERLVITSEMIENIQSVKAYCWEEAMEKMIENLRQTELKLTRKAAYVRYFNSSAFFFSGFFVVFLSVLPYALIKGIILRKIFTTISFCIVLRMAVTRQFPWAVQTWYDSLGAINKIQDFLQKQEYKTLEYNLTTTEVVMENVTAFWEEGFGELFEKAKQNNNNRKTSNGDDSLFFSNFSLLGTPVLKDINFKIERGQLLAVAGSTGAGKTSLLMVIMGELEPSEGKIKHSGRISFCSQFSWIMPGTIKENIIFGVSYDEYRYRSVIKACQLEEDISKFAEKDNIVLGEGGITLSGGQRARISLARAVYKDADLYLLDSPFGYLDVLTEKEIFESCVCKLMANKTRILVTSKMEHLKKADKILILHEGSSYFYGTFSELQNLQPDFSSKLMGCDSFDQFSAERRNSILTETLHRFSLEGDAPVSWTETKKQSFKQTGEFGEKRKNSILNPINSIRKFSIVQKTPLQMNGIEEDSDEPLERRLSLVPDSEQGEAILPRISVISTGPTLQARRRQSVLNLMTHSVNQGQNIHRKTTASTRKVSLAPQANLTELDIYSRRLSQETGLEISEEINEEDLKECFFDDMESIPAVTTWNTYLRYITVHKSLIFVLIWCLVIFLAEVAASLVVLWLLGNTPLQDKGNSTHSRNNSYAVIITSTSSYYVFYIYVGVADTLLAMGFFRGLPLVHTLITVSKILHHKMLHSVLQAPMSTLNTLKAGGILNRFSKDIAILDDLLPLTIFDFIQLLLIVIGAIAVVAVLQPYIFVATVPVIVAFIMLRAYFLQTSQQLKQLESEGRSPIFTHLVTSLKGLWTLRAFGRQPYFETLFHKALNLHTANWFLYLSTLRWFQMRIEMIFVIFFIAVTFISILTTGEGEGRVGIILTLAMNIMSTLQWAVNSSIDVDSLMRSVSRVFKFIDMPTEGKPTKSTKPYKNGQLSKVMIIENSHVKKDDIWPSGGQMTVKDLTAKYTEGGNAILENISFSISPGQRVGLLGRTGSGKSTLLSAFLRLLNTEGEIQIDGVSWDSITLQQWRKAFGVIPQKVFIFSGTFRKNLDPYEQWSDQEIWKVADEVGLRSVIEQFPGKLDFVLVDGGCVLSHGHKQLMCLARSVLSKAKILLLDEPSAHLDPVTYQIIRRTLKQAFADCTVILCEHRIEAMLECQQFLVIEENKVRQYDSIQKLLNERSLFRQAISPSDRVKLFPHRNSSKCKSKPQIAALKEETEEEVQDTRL
Assay: T84 assay (FLIPR membrane potential, forskolin/IBMX-stimulated CFTR channel activity)
Conditions: average of at least 2 runs unless annotated n = 1
Rule: IC50 below 2 µM gives criterion met. Equal to or above 2 µM gives criterion not met.

{"Molecule": "CC(C)(C)OC(=O)N1CCC(COc2ccc(-c3cc(Cl)c(O)c(Cl)c3)nn2)(c2ccccc2)CC1", "Label Value": "criterion not met"}
{"Molecule": "OCCN(Cc1cccc(Cl)c1Cl)c1ccc(-c2cc(Cl)c(O)c(Cl)c2)nn1", "Label Value": "criterion met"}
{"Molecule": "Oc1c(Br)cc(-c2ccc(OCc3cccc(Br)c3)nn2)cc1Br", "Label Value": "criterion not met"}
{"Molecule": "CN(Cc1ccc2ncccc2c1)c1ccc(-c2cc(Cl)c(O)c(Cl)c2)nn1", "Label Value": "criterion not met"}
{"Molecule": "Oc1c(Cl)cc(-c2ccc(OCc3ccccc3)nn2)cc1Cl", "Label Value": "criterion not met"}
{"Molecule": "CC(Oc1ccc(-c2cc(Br)c(O)c(Br)c2)nn1)c1cccc(Cl)c1 (centres unmarked)", "Label Value": "criterion not met"}
{"Molecule": "CN(Cc1ccccc1)c1ccc(-c2cc(Cl)c(O)c(Cl)c2)nn1", "Label Value": "criterion met"}
{"Molecule": "Oc1c(Cl)cc(-c2ccc(OCCc3ccccc3)nn2)cc1Cl", "Label Value": "criterion not met"}
{"Molecule": "Oc1c(Cl)cc(-c2ccc(OCC3(c4ccccc4)CCN(Cc4ccc(Cl)nc4)CC3)nn2)cc1Cl", "Label Value": "criterion met"}
{"Molecule": "Oc1c(Cl)cc(-c2ccc(N(Cc3ccccc3)Cc3ccccc3)nn2)cc1Cl", "Label Value": "criterion met"}
{"Molecule": "Oc1c(Cl)cc(-c2ccc(N3CCc4ccccc4C3)nn2)cc1Cl", "Label Value": "criterion met"}
{"Molecule": "OCCN(Cc1ccncc1)c1ccc(-c2cc(Cl)c(O)c(Cl)c2)nn1", "Label Value": "criterion not met"}
{"Molecule": "Oc1c(Br)cc(-c2ccc(OCCc3cccc4ccccc34)nn2)cc1Br", "Label Value": "criterion not met"}
{"Molecule": "COc1ccc(CN(CCO)c2ccc(-c3cc(Cl)c(O)c(Cl)c3)nn2)cc1OC", "Label Value": "criterion not met"}
{"Molecule": "COCCN(Cc1ccccc1)c1ccc(-c2cc(Cl)c(O)c(Cl)c2)nn1", "Label Value": "criterion met"}
{"Molecule": "CN(Cc1cccnc1)c1ccc(-c2cc(Cl)c(O)c(Cl)c2)nn1", "Label Value": "criterion met"}
{"Molecule": "CCCN(Cc1ccccc1)c1ccc(-c2cc(Cl)c(O)c(Cl)c2)nn1", "Label Value": "criterion met"}
{"Molecule": "Oc1c(Br)cc(-c2ccc(OCCc3ccc(Br)cc3)nn2)cc1Br", "Label Value": "criterion not met"}
{"Molecule": "Oc1c(Cl)cc(-c2ccc(NCc3ccccc3)nn2)cc1Cl", "Label Value": "criterion met"}
{"Molecule": "CCN(Cc1ccc(OC)c(F)c1)c1ccc(-c2cc(Cl)c(O)c(Cl)c2)nn1", "Label Value": "criterion met"}
{"Molecule": "Oc1c(Cl)cc(-c2ccc(NCc3cc(F)ccc3F)nn2)cc1Cl", "Label Value": "criterion met"}
{"Molecule": "Oc1c(Cl)cc(-c2ccc(N3CCN(c4cccc(F)c4)CC3)nn2)cc1Cl", "Label Value": "criterion not met"}
{"Molecule": "OCCN(Cc1ccccn1)c1ccc(-c2cc(Cl)c(O)c(Cl)c2)nn1", "Label Value": "criterion not met"}
{"Molecule": "Oc1c(Br)cc(-c2ccc(OCc3cccc(Cl)c3Cl)nn2)cc1Br", "Label Value": "criterion not met"}
{"Molecule": "Oc1c(Cl)cc(-c2ccc(NCc3cc(F)cc(C(F)(F)F)c3)nn2)cc1Cl", "Label Value": "criterion not met"}
{"Molecule": "Oc1c(Cl)cc(-c2ccc(N3CCC(Cc4ccccc4)CC3)nn2)cc1Cl", "Label Value": "criterion not met"}
{"Molecule": "OCCN(Cc1ccccc1Cl)c1ccc(-c2cc(Cl)c(O)c(Cl)c2)nn1", "Label Value": "criterion met"}
{"Molecule": "Oc1c(Cl)cc(-c2ccc(NCc3ccc(Cl)c(Cl)c3)nn2)cc1Cl", "Label Value": "criterion not met"}
{"Molecule": "OCCN(Cc1cccnc1)c1ccc(-c2cc(Cl)c(O)c(Cl)c2)nn1", "Label Value": "criterion not met"}
{"Molecule": "Oc1c(Br)cc(-c2ccc(OCCc3ccc(Cl)cc3)nn2)cc1Br", "Label Value": "criterion not met"}
{"Molecule": "Oc1c(Br)cc(-c2ccc(OCCc3cccc(Cl)c3Cl)nn2)cc1Br", "Label Value": "criterion not met"}
{"Molecule": "CN(C)CCCOc1ccc(CN2CCC(COc3ccc(-c4cc(Cl)c(O)c(Cl)c4)nn3)(c3ccccc3)CC2)cc1", "Label Value": "criterion not met"}
{"Molecule": "OCCN(Cc1cccc(OCc2ccccc2Cl)c1)c1ccc(-c2cc(Cl)c(O)c(Cl)c2)nn1", "Label Value": "criterion not met"}
{"Molecule": "CCN(Cc1ccccc1)c1ccc(-c2cc(Cl)c(O)c(Cl)c2)nn1", "Label Value": "criterion met"}
